These data points were gathered from the supplement of paper PMC7877785.

# TEST_DESCRIPTION: self-splicing fitness, log relative to wild type (ln ratio); higher = more splicing; Tetrahymena group I intron in knt gene, E. coli kanamycin selection, DiMSum; sequences stand for … in CUCUCU…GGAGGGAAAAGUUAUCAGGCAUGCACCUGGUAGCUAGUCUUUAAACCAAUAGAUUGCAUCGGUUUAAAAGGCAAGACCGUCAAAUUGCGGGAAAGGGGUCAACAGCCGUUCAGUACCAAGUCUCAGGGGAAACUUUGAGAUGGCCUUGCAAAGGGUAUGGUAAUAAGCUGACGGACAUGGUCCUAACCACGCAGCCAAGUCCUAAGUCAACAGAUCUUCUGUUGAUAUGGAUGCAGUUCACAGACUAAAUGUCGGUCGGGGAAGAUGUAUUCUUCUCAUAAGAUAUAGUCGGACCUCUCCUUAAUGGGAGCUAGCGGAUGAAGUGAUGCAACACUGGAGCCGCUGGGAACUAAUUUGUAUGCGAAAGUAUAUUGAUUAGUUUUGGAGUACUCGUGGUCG;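 further: selection with 25 µg/mL kanamycin versus none on LB agar overnight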
# TEST_PARAMETERS: 37 °C
Lab note: compare self-splicing fitness (ln) against -2. Equal or greater, write 1 (yes). Smaller, write 0 (no).

>>> df
                     seq  discrete_label
 0  CGAUAGCAAUAUUACGAUUA         1 (yes)
 1  CGCAAGCAAUAUUACGUGAA         1 (yes)
 2  GUGCAGCAAUAUUACGCGAA         1 (yes)
 3  CACAAGCAAUAUUACGAGGG          0 (no)
 4  UGGCAGCAAUAUUACGGAUU         1 (yes)
 5  CUGGAGCAAUAUUACGGUGA          0 (no)
 6  CAAGAGCAAUAUUACGUACG         1 (yes)
 7  AUUUAGCAAUAUUACGCAUC          0 (no)
 8  GACUAGCAAUAUUACGCAGG          0 (no)
 9  UCCGAGCAAUAUUACGUAUU          0 (no)
10  ACCGAGCAAUAUUACGGUCA         1 (yes)
11  AAUCAGCAAUAUUACGGAUG         1 (yes)
12  AUACAGCAAUAUUACGAAUU         1 (yes)
13  CCGAAGCAAUAUUACGUGAG         1 (yes)
14  ACGUAGCAAUAUUACGUCUA         1 (yes)
15  CGCGAGCAAUAUUACGCAUU          0 (no)
16  UCGCAGCAAUAUUACGUGUC          0 (no)
17  AGUUAGCAAUAUUACGCAUC         1 (yes)
18  GUGAAGCAAUAUUACGCUGG         1 (yes)
19  CGGGAGCAAUAUUACGUGCU          0 (no)
20  UUUAAGCAAUAUUACGGUCG         1 (yes)
21  AUGGAGCAAUAUUACGCGAU         1 (yes)
22  AAGAAGCAAUAUUACGGUGU         1 (yes)
23  AGGUAGCAAUAUUACGCUAC          0 (no)
24  GUUAAGCAAUAUUACGUUAC         1 (yes)
25  UGCGAGCAAUAUUACGUUUA          0 (no)
26  AUUCAGCAAUAUUACGAUGU         1 (yes)
27  AUCGAGCAAUAUUACGUCAU         1 (yes)
28  GCUCAGCAAUAUUACGAGAC         1 (yes)
29  ACUUAGCAAUAUUACGAAAC         1 (yes)
30  AAAAAGCAAUAUUACGUCAU         1 (yes)
31  UUAAAGCAAUAUUACGAUCC         1 (yes)
